The measured values listed here are drawn from ChEMBL document CHEMBL2321781.

- protocol-notes: Toxicity against rat L6 cells after 72 hrs by Alamar blue assay
- Assay type: cell-based
measure-name: log10 of IC50 at 72 h (log10 of the value in nM)
Please interpret these as log10 of IC50 at 72 h where IC50 at 72 h is in nM.

q: Dear colleague, I am looking for the recorded log10 of IC50 at 72 h of the following compound: "Cn1c2nc3ccccc3c-2c(NCCCNC(=O)Nc2ccccc2)c2cc([N+](=O)[O-])ccc21"
a: 3.44

q: Dear colleague, I am looking for the recorded log10 of IC50 at 72 h of the following compound: Cn1c2nc3ccccc3c-2c(Cl)c2ccccc21 [11-CHLORONEOCRYPTOLEPINE]
a: 3.16

q: Dear colleague, I am looking for the recorded log10 of IC50 at 72 h of the following compound: Cn1c2nc3ccccc3c-2cc2ccccc21 [NEOCRYPTOLEPINE]
a: 3.50

q: Dear colleague, I am looking for the recorded log10 of IC50 at 72 h of the following compound: "Cn1c2nc3ccccc3c-2c(NCCCN)c2cc(Br)ccc21"
a: 2.41

q: Dear colleague, I am looking for the recorded log10 of IC50 at 72 h of the following compound: "Cn1c2nc3ccccc3c-2c(NCCCNC(=O)Nc2ccccc2)c2cc(Cl)ccc21"
a: 3.49

q: Dear colleague, I am looking for the recorded log10 of IC50 at 72 h of the following compound: "COc1ccc2c(c1)c(NCCCN)c1c3ccccc3nc-1n2C"
a: 2.58

q: Dear colleague, I am looking for the recorded log10 of IC50 at 72 h of the following compound: "Cn1c2nc3ccccc3c-2c(NCCCN)c2cc(Cl)ccc21"
a: 2.43

q: Dear colleague, I am looking for the recorded log10 of IC50 at 72 h of the following compound: "Cn1c2nc3ccccc3c-2c(NCCCN)c2cc(C(F)(F)F)ccc21"
a: 2.97

q: Dear colleague, I am looking for the recorded log10 of IC50 at 72 h of the following compound: "Cn1c2nc3ccccc3c-2c(NCCCNC(=O)Nc2ccccc2)c2ccccc21"
a: 3.09

q: Dear colleague, I am looking for the recorded log10 of IC50 at 72 h of the following compound: "COc1ccc2c(c1)c(NCCCNC(=O)Nc1ccccc1)c1c3ccccc3nc-1n2C"
a: 3.44

====

- Test system: Plasmodium falciparum
- protocol-notes: microbe, parasite or virus in culture
- details: NF54
- Description: Antimalarial activity against chloroquine-sensitive Plasmodium falciparum NF54 after 72 hrs by [3H]hypoxanthine incorporation assay
Threshold 20 nM. IC50 below it: TRUE. IC50 at it or above: FALSE.

q: Regarding "C[C@@H]1CC[C@H]2[C@@H](C)C(=O)O[C@@H]3O[C@@]4(C)CC[C@@H]1[C@]32OO4" , kindly confirm whether its IC50 is beneath 20 nM.
a: TRUE

q: Regarding "Cn1c2nc3ccccc3c-2c(NCCCNC(=O)Nc2ccccc2)c2cc(C(F)(F)F)ccc21" , kindly confirm whether its IC50 is beneath 20 nM.
a: TRUE

q: Regarding Cn1c2nc3ccccc3c-2c(NCCCN2C(=O)c3ccccc3SC2c2ccc(Cl)cc2)c2ccccc21 (centres undefined) , kindly confirm whether its IC50 is beneath 20 nM.
a: FALSE

q: Regarding Cn1c2nc3ccccc3c-2c(NCCCN2C(=O)CCSC2c2ccc(Cl)cc2)c2ccccc21 (centres undefined) , kindly confirm whether its IC50 is beneath 20 nM.
a: FALSE

q: Regarding "Cn1c2nc3ccccc3c-2c(NCCCN)c2cc(C(F)(F)F)ccc21" , kindly confirm whether its IC50 is beneath 20 nM.
a: TRUE

q: Regarding "CCCCNC(=O)NCCCNc1c2c3ccccc3nc-2n(C)c2ccccc12" , kindly confirm whether its IC50 is beneath 20 nM.
a: FALSE

q: Regarding "Cn1c2nc3ccccc3c-2c(NCCCNC(=O)Nc2ccccc2)c2cc(F)ccc21" , kindly confirm whether its IC50 is beneath 20 nM.
a: FALSE

q: Regarding "Cn1c2nc3ccccc3c-2c(NCCCN)c2cc(Cl)ccc21" , kindly confirm whether its IC50 is beneath 20 nM.
a: TRUE

q: Regarding "Cn1c2nc3ccccc3c-2c(NCCCNC(=O)Nc2ccccc2)c2cc(Br)ccc21" , kindly confirm whether its IC50 is beneath 20 nM.
a: TRUE

====

- protocol-notes: Selectivity index, ratio of IC50 for rat L6 cells to IC50 for chloroquine-sensitive Plasmodium falciparum NF54
- Type: toxicity, cell-based
- details: read-out: Ratio IC50
measure-name: selectivity ratio
Lab note: write the figure by itself, no unit.

q: Dear colleague, I am looking for the recorded selectivity ratio of the following compound: "COc1ccc2c(c1)c(NCCCN)c1c3ccccc3nc-1n2C"
a: 5.1

q: Dear colleague, I am looking for the recorded selectivity ratio of the following compound: "Cn1c2nc3ccccc3c-2c(NCCCN)c2cc([N+](=O)[O-])ccc21"
a: 18.3

q: Dear colleague, I am looking for the recorded selectivity ratio of the following compound: "CCCCNC(=O)NCCCNc1c2c3ccccc3nc-2n(C)c2ccccc12"
a: 16.7

q: Dear colleague, I am looking for the recorded selectivity ratio of the following compound: "Cn1c2nc3ccccc3c-2c(NCCCNC(=O)Nc2ccccc2)c2cc(F)ccc21"
a: 143

q: Dear colleague, I am looking for the recorded selectivity ratio of the following compound: "Cn1c2nc3ccccc3c-2c(NCCCN)c2cc(C(F)(F)F)ccc21"
a: 86.3

q: Dear colleague, I am looking for the recorded selectivity ratio of the following compound: "Cn1c2nc3ccccc3c-2c(NCCCN)c2cc(F)ccc21"
a: 6.8

q: Dear colleague, I am looking for the recorded selectivity ratio of the following compound: Cn1c2nc3ccccc3c-2c(NCCCN2C(=O)CCSC2c2ccc(Cl)cc2)c2ccccc21 (configuration not stated)
a: 64.1

====

Kindly supply the reported pIC50 values for the records listed here.
- System: Leishmania donovani
- protocol-notes: Antiparasitic activity against Leishmania donovani MHOM/ET/67/L82 axenic amastigotes after 70 hrs by Alamar blue assay
- Assay type: functional, organism-based
- details: MHOM/ET/67/L82, 70 h
Friendly reminder that pIC50 comes from taking -log10 of the concentration in mol/L.

q: Dear colleague, I am looking for the recorded pIC50 of the following compound: "Cn1c2nc3ccccc3c-2c(NCCCNS(=O)(=O)c2ccccc2)c2ccccc21"
a: 4.24

q: Dear colleague, I am looking for the recorded pIC50 of the following compound: Cn1c2nc3ccccc3c-2c(NCCCN2C(=O)c3ccccc3SC2c2ccc(Cl)cc2)c2ccccc21 (configuration not stated)
a: 5.01

q: Dear colleague, I am looking for the recorded pIC50 of the following compound: CN(C)c1ccc(C2SCC(=O)N2CCCNc2c3c4ccccc4nc-3n(C)c3ccccc23)cc1 (configuration not stated)
a: 4.58

q: Dear colleague, I am looking for the recorded pIC50 of the following compound: "CCCCCCCCCCCCCCCCOP(=O)([O-])OCC[N+](C)(C)C"
a: 6.44

q: Dear colleague, I am looking for the recorded pIC50 of the following compound: "Cn1c2nc3ccccc3c-2c(NCCCNC(=S)Nc2ccccc2)c2ccccc21"
a: 4.10

q: Dear colleague, I am looking for the recorded pIC50 of the following compound: "Cn1c2nc3ccccc3c-2c(NCCCNC(=O)Nc2ccccc2)c2ccccc21"
a: 4.01

q: Dear colleague, I am looking for the recorded pIC50 of the following compound: Cn1c2nc3ccccc3c-2c(NCCCN2C(=O)CCSC2c2ccc(Cl)cc2)c2ccccc21 (configuration not stated)
a: 4.89

====

- System: Plasmodium falciparum
- protocol-notes: microbe, parasite or virus in culture
- details: NF54
Note that class boundaries on IC50 are b0 (below 20 nM), b1 (20 nM to below 60 nM), b2 (60 nM or more)

q: Please report the category associated with Cn1c2nc3ccccc3c-2c(NCCCN2C(=O)CCSC2c2ccc(F)cc2)c2ccccc21 (stereo not given) , nothing else.
a: b1

q: Please report the category associated with Cn1c2nc3ccccc3c-2c(Cl)c2ccccc21 [11-CHLORONEOCRYPTOLEPINE] , nothing else.
a: b2

q: Please report the category associated with Cn1c2nc3ccccc3c-2c(NCCCN2C(=O)CSC2c2ccc(Cl)cc2)c2ccccc21 (stereo not given) , nothing else.
a: b2

q: Please report the category associated with "Cn1c2nc3ccccc3c-2c(NCCCNC(=O)Nc2ccccc2)c2ccccc21" , nothing else.
a: b1

q: Please report the category associated with "Cn1c2nc3ccccc3c-2c(NCCCNS(=O)(=O)c2ccc3ccccc3c2)c2ccccc21" , nothing else.
a: b0

q: Please report the category associated with "Cn1c2nc3ccccc3c-2c(NCCCN)c2ccccc21" , nothing else.
a: b2

q: Please report the category associated with "Cn1c2nc3ccccc3c-2c(NCCCNC(=O)c2cccs2)c2ccccc21" , nothing else.
a: b2

q: Please report the category associated with "Cn1c2nc3ccccc3c-2c(NCCCN)c2cc([N+](=O)[O-])ccc21" , nothing else.
a: b0

q: Please report the category associated with "COc1ccc2c(c1)c(NCCCNC(=O)Nc1ccccc1)c1c3ccccc3nc-1n2C" , nothing else.
a: b0

q: Please report the category associated with CN(C)c1ccc(C2SCC(=O)N2CCCNc2c3c4ccccc4nc-3n(C)c3ccccc23)cc1 (stereo not given) , nothing else.
a: b1
